B1: mRNA-splicing (parent)
chain: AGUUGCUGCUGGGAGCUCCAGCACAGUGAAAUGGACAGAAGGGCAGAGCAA

Variants of: B1
method.notes: exon inclusion enrichment index; higher = more inclusion; WT1 exon 5 minigene, HEK293
Label YES when exon inclusion enrichment index is at or above 1; otherwise label NO.

{"columns": ["sequence", "assigned.label"],
 "data": [
  ["AGUUAUAUAUGGGAGCUCCAGCACAGUGCUAUGGACAGAAGGGCAGAGCAA [G5A C6U U7A G8U C9A A29C A30U]", "NO"],
  ["AGUUCACACAGGGAGCUCCAGCACAGUGAAAUGGACAGAAGGGGUGAGCAA [G5C C6A U7C G8A U10A C44G A45U]", "NO"],
  ["AGUUUCUUUUGUAAGCUCCAGCACAGUGAAAUGGACAGAAGGGCAGAGCAA [G5U G8U C9U G12U G13A]", "NO"],
  ["AGUUCGCGCCGGGAGCUCCAGCACAGUGAAAUGGACAGAAGGGUCGAGCAA [G5C C6G U7C U10C C44U A45C]", "YES"],
  ["AGUUCUUAACGGGAGCUCCAGCACAGUGAAAUGGACAGAAGGGCAGAGCAA [G5C C6U G8A C9A U10C]", "NO"],
  ["AGUUGACGACGGGAGCUCCAGCACAGUCGAAUGGACAGAAGGGCAGAGCAA [C6A U7C C9A U10C G28C A29G]", "YES"],
  ["AGUUACCACCGGGAGCUCCAGCACAGUGAAAUGGACAGAAAAGCAGAGCAA [G5A U7C G8A U10C G41A G42A]", "YES"],
  ["AGUUAGGGAUAGGAGCUCCAGCACAGUGAAAUGGACAGAAGGGCAGAGCAA [G5A C6G U7G C9A G11A]", "NO"],
  ["AGUUCUUCUCGGCUGCUCCAGCACAGUGAAAUGGACAGAAGGGCAGAGCAA [G5C C6U G8C C9U U10C G13C A14U]", "YES"],
  ["AGUUACCACCGGGAGGACCAGCACAGUGAAAUGGACAGAAGGGCAGAGCAA [G5A U7C G8A U10C C16G U17A]", "YES"],
  ["AGUUGAAGAAAGGAGCUCCAGCACAGUGAAAUGGACAGAAGGGCAGAGCAA [C6A U7A C9A U10A G11A]", "YES"],
  ["AGUUCACACAGGGAGGGCCAGCACAGUGAAAUGGACAGAAGGGCAGAGCAA [G5C C6A U7C G8A U10A C16G U17G]", "NO"],
  ["AGUGUCCACCGGGAGCUCCAGCACAGUGAAAUGGACAGAAGGGCAGAGCAA [U4G G5U U7C G8A U10C]", "YES"],
  ["AGUUUCUUUUGGGAGCUCCAGCACAGUGAAAUGGACAGAAGGCGAGAGCAA [G5U G8U C9U G43C C44G]", "YES"],
  ["AGUUACCACCGGGAGCUCCAGCACAGUGAAACAGACAGAAGGGCAGAGCAA [G5A U7C G8A U10C U32C G33A]", "YES"],
  ["AGGUCGCGCCGGGAGCUCCAGCACAGUGAAAUGGACAGAAGGGCAGAGCAA [U3G G5C C6G U7C U10C]", "YES"],
  ["AGUUAGGGAUGGGAGCUCCAGCACAGUGAAAUGGACAGAAGGGCAACGCAA [G5A C6G U7G C9A G46A A47C]", "NO"],
  ["AGUUCUUCUCGGGAGAGCCAGCACAGUGAAAUGGACAGAAGGGCAGAGCAA [G5C C6U G8C C9U U10C C16A U17G]", "YES"],
  ["AGUUGCUGCUGGGAGCUCCAGCACAGUGAAAUGGACAGAAGGGCAGAUCAA [G48U]", "NO"],
  ["AGUUUGUGCUGGGAGCUCCAGCACAGUGAAAUGGACAGAAGGGCAGAGCAA [G5U C6G]", "NO"],
  ["AGUUUCUUUUGGGAGCUCCAGCACAGUGAAAUGGACAGAGAGGCAGAGCAA [G5U G8U C9U A40G G41A]", "NO"],
  ["AGUUCACACAGGGAGCUCCAGCACAGUGAAAUGGACAGAAGGGCAUGGCAA [G5C C6A U7C G8A U10A G46U A47G]", "NO"],
  ["AGUUUCUUUUGGGAUAUCCAGCACAGUGAAAUGGACAGAAGGGCAGAGCAA [G5U G8U C9U G15U C16A]", "NO"],
  ["AGUUCUUCUCGGGAGCUCCAGCUUAGUGAAAUGGACAGAAGGGCAGAGCAA [G5C C6U G8C C9U U10C A23U C24U]", "NO"],
  ["AGUUUCUUUUGGGAGCUCCAGCACAGUGAAAUGGACGGAAGGGCAGAGCAA [G5U G8U C9U A37G]", "NO"],
  ["AGUUUCUUUUGGGAGCUCCAGCACAGUGAAAUGGACAGAAGGCUAGAGCAA [G5U G8U C9U G43C C44U]", "NO"],
  ["AGUUAGGGAUGGGAGCUCCAGCACAGUGAAAUGGACAGAACAGCAGAGCAA [G5A C6G U7G C9A G41C G42A]", "NO"],
  ["AGUUAUAUAUAGGAGCUCCAGCACAGUGAAAUGGACAGAAGGGCAGAGCAA [G5A C6U U7A G8U C9A G11A]", "NO"],
  ["AGUUAACACCGGGAGCUCCAGCACAGUGAAAUGGACAGAAGGGCAGAGCAA [G5A C6A U7C G8A U10C]", "YES"],
  ["AGUUCGCGCCGGGAGCUCCAGCACAGUGAAAUGGUCAGAAGGGCAGAGCAA [G5C C6G U7C U10C A35U]", "YES"],
  ["AGUUUCUUUUGGGAGCUCCAGCACAGUGAGGUGGACAGAAGGGCAGAGCAA [G5U G8U C9U A30G A31G]", "NO"],
  ["AGUUUCUUUUGGGAGCUCCAGCACAGUGUUAUGGACAGAAGGGCAGAGCAA [G5U G8U C9U A29U A30U]", "NO"],
  ["AGUUAUAUAUGGGAGCUCCAGCACAGUGAAAUGGACAGAAGGGUAGAGCAA [G5A C6U U7A G8U C9A C44U]", "NO"],
  ["AGUUCUUCUCGGGAGCUCCAGCACAGUGAAAUGGACACCAGGGCAGAGCAA [G5C C6U G8C C9U U10C G38C A39C]", "YES"],
  ["AGUUACCACCGGGAGCUCCAGCACAGUGAAAUGGACAGGAGGGCAGAGCAA [G5A U7C G8A U10C A39G]", "YES"],
  ["AGUUGACGACUUGAGCUCCAGCACAGUGAAAUGGACAGAAGGGCAGAGCAA [C6A U7C C9A U10C G11U G12U]", "YES"],
  ["AGUUACCACCGGGAGCUCCAGCACAGUGAAAUGGACAGAAGGGCAGGCCAA [G5A U7C G8A U10C A47G G48C]", "YES"],
  ["AGUUCGCGCCGGGAGCUCCAGCACAGUGAACUGGACAGAAGGGCAGAGCAA [G5C C6G U7C U10C A31C]", "YES"],
  ["AGUUCACACAGGGAGCUCAGGCACAGUGAAAUGGACAGAAGGGCAGAGCAA [G5C C6A U7C G8A U10A C19A A20G]", "NO"],
  ["AGUUAGGGAUGGGACCUCCAGCACAGUGAAAUGGACAGAAGGGCAGAGCAA [G5A C6G U7G C9A G15C]", "NO"],
  ["AGUUCACACAGGGUUCUCCAGCACAGUGAAAUGGACAGAAGGGCAGAGCAA [G5C C6A U7C G8A U10A A14U G15U]", "NO"],
  ["AGUUCACACAGGGAGCUCCGCCACAGUGAAAUGGACAGAAGGGCAGAGCAA [G5C C6A U7C G8A U10A A20G G21C]", "NO"],
  ["AGUUGAAGAAGGGAGCUCCAGCACAGUGAAAUGGACAGAAGAUCAGAGCAA [C6A U7A C9A U10A G42A G43U]", "YES"],
  ["AGUUUCUUUUGGCUGCUCCAGCACAGUGAAAUGGACAGAAGGGCAGAGCAA [G5U G8U C9U G13C A14U]", "NO"],
  ["AGUUGCUGCUGGGAGCUCCAGCACAGUGAAUUGGACAGAAGGGCAGAGCAA [A31U]", "NO"],
  ["AGUUAGGGAUGGGAGCUCCAGCACAGUGAAAUGGACAGAAGAUCAGAGCAA [G5A C6G U7G C9A G42A G43U]", "NO"]
]}
